# Tested on: Colon cancer organoid
# Assay: Targeting of F14 CAF-induced therapy resistance in O23 CRC organoid-stroma co-culture. Cell viability is reported with SN-38.
# Format: functional, Homo sapiens
# Condition Label: Homo sapiens, Concentration 10 uM; read-out: Cell Viability
Parameter: viability at 10 µM (%)
Kindly provide the numeric value in % only, without the unit symbol.

I am curious: what viability at 10 µM value has been reported for COc1cc(-c2cn([C@H]3CCc4ccccc4N(CC(F)(F)F)C3=O)nn2)ccc1-n1ccc(C)n1 ? 48.6

Can you share its viability at 10 µM? I mean this compound: Cn1c(C2(NC(=O)c3ccc4c(C5CCCC5)c(-c5ncc(Br)cn5)n(C)c4c3)CCC2)nc2ccc(/C=C/C(=O)O)cc21 [DELEOBUVIR] 60.4

What does the record list as viability at 10 µM for CC1(C)C(N)=Nc2cc(OCCCN3Cc4ccc(OCCc5cn(CC(=O)N6CCC(CCN7CCCC7)CC6)nn5)cc4C3)c(OCC3CC3)cc21 ? 7.1

What viability at 10 µM value was documented for this compound, CC(=O)NCC(=O)N1[C@@H]2CC[C@H]1c1ccc(Nc3ncc(C(F)(F)F)c(NC4CCC4)n3)cc12 [PF-03814735] ? 48.4

Every entry's value here was drawn from ChEMBL document CHEMBL5608113.
